These data points were gathered from the supplement of paper PMC9170038.

Attribute: apparent KD of MS2 coat protein
# Test system: MS2 coat protein
# ASSAY_COMMENT: apparent KD of MS2 coat protein; designed switch direction (-1 OFF switch, 1 ON switch): -1; higher = weaker reporter binding
# ASSAY_CONTEXT: input ligand: FMN 200 uM
QUANTITY_KIND: apparent KD of MS2 coat protein (nM)

>>> readout_value("ACUUUUUGAGGAUAUACAUUUAUCCACAUGAGGAUCACCCAUGUACAAACAUGUAUUUGUGUAGAAGGCAGAAGAA [JR_Ex5_Sub069] (Eterna round: R97, puzzle: Exclusion 5)")
54.5
>>> readout_value("CCUCAGUCACAGGAUAUGCUCAUCUAAUGAUGAGCAGAAGGGUGAACAUGAGGAUCACCCAUGUUUACGAGGGU [Omei Ex6 E7] (Eterna round: R97, puzzle: Exclusion 6)")
407
>>> readout_value("UUUUGGCAUGUAGGAUAUGGGUCCGAUUGGGAUUUAGAAGGACAUGAGGAUCACCCAUGUGCCCUUACUUGGUGUUUUUUUUUU [EXclNG1-LROPPY20] (Eterna round: R96, puzzle: Exclusion NG 1)")
126
>>> readout_value("CUCAGGUGAGGAUAUGCUUAAGGAUCGGUACACCGACACCUGUAGAAGGCACAUGAGGAUCACCCAUGUUAGGC [Eternabot (L1) Solution 68] (Eterna round: R97, puzzle: Exclusion 4)")
30.1
>>> readout_value("CAGUACUGAGGAUAUACAUGAGGAUCACCCAUGUUUUCCAGCUAGGAAACUAGCAAGUGUAGAAGGCAGUACUG [Salish 065 m6] (Eterna round: R97, puzzle: Exclusion 3)")
342

----------
# Test system: MS2 coat protein
# ASSAY_COMMENT: apparent KD of MS2 coat protein; designed switch direction (-1 OFF switch, 1 ON switch): 1; higher = weaker reporter binding
# ASSAY_CONTEXT: Eterna round: R95; input ligand: FMN 200 uM
QUANTITY_KIND: apparent KD of MS2 coat protein

>>> readout_value("AUUUAACAAGCUUUUUGCUCGUCUUAUAAACAUGAGGAUCACCCAUGUAAUAGCGUGAGAGUAAUUAUAUUAAUUAU [JMF 101] (puzzle: Sensor for hsa-mir-208a)")
"14.7 nM"
>>> readout_value("AUAAGUUUGAUGCUCGUCUCUCCGUACAAACAUGAGGAUCACCCAUGUGGUCGGGAAGUAGCCCGGCCGGUAUGGCC [Atusri] (puzzle: Sensor for hsa-mir-208a)")
"16.7 nM"
>>> readout_value("UCUUGGUUUUUGCUCGUUUUUUGUGUUGAACAUGAGGAUCACCCAUGUAUUGUACGGUCCAGUUUAGUAAUGGUCCA [JMF 7] (puzzle: Sensor for hsa-mir-208a)")
"26.3 nM"
>>> readout_value("AACUAUCUAUCUGAGGAUAUCAUGAAAUAAACAUGAGGAUCACCCAUGUGCAGGAAAACUGCAUAUGAGAAGGCAGAUAGAUUGA [salish99_ss2_r3_021] (puzzle: Same State 2)")
"66.6 nM"
>>> readout_value("GGCAGGUGCAGGCUUGCUUGCACCUGGAAACAUGAGGAUCACCCAUGUUUGGGACAAGCUUUGCUCUUCGUUUUGUC [JL ViennaUCT Isusreraar mod 4] (puzzle: Sensor for hsa-mir-208a)")
"35.3 nM"
>>> readout_value("GUGCGGGUGCCACAGGAUAUACGUGGAUCGACAUGAGGAUCACCCAUGUAUAUCCUAAUAAUUGCGUAGAAGGGUGGUCAGCCGU [Enbebiqu] (puzzle: Same State 2)")
"85.9 nM"
>>> readout_value("UCUUGGUUUUUGCUCGUUUUUUGUGUUGAACAUGAGGAUCACCCAUGUAUUGUACGGUCCAAUUUAAUAAUAAUCCA [JMF 74] (puzzle: Sensor for hsa-mir-208a)")
"59 nM"
>>> readout_value("AGUCCAGCCUGAGCUGGACAAAAGCAUGUACAUGAGGAUCACCCAUGUCAUGUACAAGCUUUUUGCUCGUUUUAAAA [Zipper 46 - 13] (puzzle: Sensor for hsa-mir-208a)")
"477 nM"
>>> readout_value("UGCCAUAGUAUAUUGGUACGUGCUUUUUGACAUGAGGAUCACCCAUGUCCUCGUCAUAUGCGCAGUCCGUAGACUGC (puzzle: Sensor for hsa-mir-208a)")
"328 nM"
>>> readout_value("AUUUAACAAGCUUUUUGCUCGUCUUAUAAACAUGAGGAUCACCCAUGUAAUAGCGUGAGAGUUAUUAUAUAAAUAAU [JMF 87] (puzzle: Sensor for hsa-mir-208a)")
"18 nM"
>>> readout_value("UGUCCAGCCUGAGCUGGACAAAAGCAUGUACAUGAGGAUCACCCAUGUUCAUGUACAAGCUUUUUGCUCGUCUUAUA [salish99_208a_r3_044] (puzzle: Sensor for hsa-mir-208a)")
"404 nM"

----------
# Tested on: K4 kissing-loop RNA reporter;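 note: bound reporter read as fluorescence of individual clusters on recovered sequencing chips by microscopy, with normalized cluster intensities fitted with a binding model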
# ASSAY_COMMENT: apparent KD of K4 kissing-loop reporter; higher = weaker reporter binding
# ASSAY_CONTEXT: Eterna round: R107; input ligand: none
QUANTITY_KIND: apparent KD of K4 kissing-loop reporter (nM)

>>> readout_value("UGACUGGACUGAAGGAGCGUUGAAGGAGCGUAAGGAGUGAUGUUCCAUACAGGUAGGUCGCAGCAGGUAGGUCGCAGUCUAGUCU [ArgBS 26 #DoubleAptamer #SwitchBubble]")
229
>>> readout_value("AGAUCUGUAACAGAUACCAGAGGACGAUGAUCGGAUAGUGAUGUUAUCUGUCAGUCGUCGCUCCCUUGGCAGCUGUUACAGAUCA [Omei KL Theo B SS B v1]")
174
>>> readout_value("UGGACCUGACUCGAUAAGAGUCAAAGGGAUACCAGCCACGAAAGUGGCCCUUGGCAGCUCUGCCAGUGAUGUUGGUCAAGGUCCU [#SwitchBubble 6 #StaticStem]")
1310
>>> readout_value("CGUCUAUAGCAGGAUACCAGUACCCAUUAUGUACGUUUAUAGUAGAGUGAUGUUCUAAAGUACCCUUGGCAGCUUCCUGUGACCC [#24 K4 Theophylline B Exclusion]")
189
>>> readout_value("AAUAUAUAGUGAAGGAGCGCGUAUUGCAGUGAUGUUGCUAAGUUAUUAUUAUCUAUUUUUACGCAGGUAGGUCGCACUAUAUAUA [JR_SSArginiB_Sub014]")
224

----------
# Tested on: MS2 coat protein
# ASSAY_COMMENT: apparent KD of MS2 coat protein; higher = weaker reporter binding
# ASSAY_CONTEXT: Eterna round: R107; input ligand: arginine 13.2 mM
QUANTITY_KIND: apparent KD of MS2 coat protein (nM)

>>> readout_value("GAGGAUCAAGUAGAUACCAGCACAUGAGGAUCACCCAUGUAAUGGUGUCCCUCAAGAACGUGCCCUUGGCAGCUACUAUCAAAAU [Enarbeer]")
24.6
>>> readout_value("AAGGUAUCACAGACAUGGGUGUACUGUGAUACCAGCUAGGAAACUAGCCCUUGGCAGCACAUGAGGAUCACCCAUGUAAGAAUAA [(T)'-(M)'-(T1)-(T2)-(M1)-(M2)_Design4_2/19/17]")
34
>>> readout_value("AGCGCUAUGCAUGAUACCAGCUACAUGAGGAUCACCCAUGUGCGUCAGAAAUGACUGUGUAGCCCUUGGCAGCAUAAAGCAUGUA [Exclusion - Theophylline B (Freestyle 9)]")
19.4
>>> readout_value("GUACAUGAGGAUCACCCAUGUGGUAGGGAUACCAGCCAGAAGAAAGGCCCUUGGCAGCUUGUAUUUAGUGUGGGUUUGUUUGUUC [Exclusion - Theophylline A]")
29
>>> readout_value("UGCCUAAAGUCGGCCGCCACUGAUGGUAUCCUCUCCUCGAGGUCACACAUGAGGAUCACCCAUGUCAGGACCGGGACUAGUGAGA [theeternabot_exclusion_MS2_Trp_B_36]")
7.11
>>> readout_value("CCCAGUCAUAGCAGGGCAAAUAUACUCGAAGGAGCGUCAUAGUAGGCAGGUAGGUCGCGAGACAUGAGGAUCACCCAUGUAGAGA [cccmullin]")
33.6
>>> readout_value("GAUGAACAUACUGAUACCAGUGUACUGACAUGAGGAUCACCCAUGUUGGGUUUUGUUGUACACCCUUGGCAGCAGAAUGUUUAUC [AstrosExyTheB#7]")
46.2
>>> readout_value("AAUUAUCAGUCGGCCGCCACUGACACAUGAGGAUCACCCAUGUAACAUGGGUAAAAUUAACUGAACAGGACCGGGACAAAGGCUA [JR_ExcTryptoB_Sub008]")
179
>>> readout_value("ACACGGAAUGAUGGAUCACCUCGUUAAUAACGAGGACCGGUACGGCCGCCACUCGAAAACCGUGACCUGUACGAAAAGUGCAGGA [TrypAS 15 #SwitchBubble #HomemadeMS2 #StaticStrem #MS2Early]")
27.3
>>> readout_value("UGGUUUCGGUCAAUCACCGGUCCCUGGGAAGGAGCGGACUCAUGUCCAGGUAGGUCGCCCAGACAUGAGGAUCACCCAUGUGACA [Tiusdiin]")
32.5
>>> readout_value("GCGACCCUGAGAUCCUGCGUAACGUGAACACGAGGACCGGUACGGCCGCCACUCGAGAGAACAUGAGGAUCACCCAUGUCUGAGC [e-trypA-0(N)]")
16.2
